Data credit: ChEMBL document CHEMBL3860104

assay: Half life in Beagle dog at 0.5/1 mg/kg, iv or 0.5 mg/kg, po by LC/MS-MS method; format: ADME, organism-based, Canis lupus familiaris; details: in vivo
Measured half-life accompanies every entry in the list below.
Respond with the figure and its unit, in that order.

[
  {
    "molecule": "CC1([C@@H]2CC(=O)N(CCOc3ccc(F)c(C#N)c3)C2)CCS(=O)(=O)CC1",
    "half-life": "1.3 h"
  }
]

Below: the item to evaluate.
Determine from records and report half-life for CN1CCC(C)(C2CC(=O)N(CCOc3ccc(F)c(C#N)c3)C2)CC1.Cl (racemic) 3.2 h

---

Measured chromatographic logD accompanies every entry in the list below.
assay: Lipophilicity, log D of the compound by chromatography; assay type: physicochemical
Simply state the number, no unit and no words.

Below, each entry is followed by its recorded chromatographic logD result.
[
  {
    "compound": "CC1([C@@H]2CC(=O)N(CCOc3ccc(F)c(C#N)c3)C2)CCS(=O)(=O)CC1",
    "chromatographic logD": 3
  },
  {
    "compound": "CC1([C@H]2CC(=O)N(CCOc3ccc(F)c(C#N)c3)C2)CCS(=O)(=O)CC1",
    "chromatographic logD": 2.8
  }
]

Determine from records and report chromatographic logD for CC1(C2CC(=O)N(CCOc3ccc(F)c(C#N)c3)C2)CCNCC1 (racemic; form 1) 1.5

Determine from records and report chromatographic logD for CC(=O)N1CCC(C)(C2CC(=O)N(CCOc3ccc(F)c(C#N)c3)C2)CC1 (racemic) 2.9

Determine from records and report chromatographic logD for CC1([C@@H]2CC(=O)N(CCOc3ccc(F)c(F)c3)C2)CCS(=O)(=O)CC1 3.4

Determine from records and report chromatographic logD for CCN(CC)CCN(Cc1ccc(-c2ccc(C(F)(F)F)cc2)cc1)C(=O)Cn1c(SCc2ccc(F)cc2)nc(=O)c2c1CCC2 [DARAPLADIB] 6.3

Determine from records and report chromatographic logD for CN1CCC(C)([C@H]2CC(=O)N(CCOc3ccc(F)c(C#N)c3)C2)CC1 1.7

Determine from records and report chromatographic logD for CC1(C2CC(=O)N(CCOc3ccc(F)c(F)c3)C2)CCS(=O)(=O)CC1 (racemic) 3.4

Determine from records and report chromatographic logD for CC1(C2CC(=O)N(CCOc3ccc(F)cc3)C2)CCS(=O)(=O)CC1 (racemic) 3.1

Determine from records and report chromatographic logD for CC1(C2CC(=O)N(CCOc3ccc(F)c(C#N)c3)C2)CCS(=O)(=O)CC1 (racemic) 2.8

Determine from records and report chromatographic logD for CC1(C2CC(=O)N(CCOc3ccc(F)c(C#N)c3)C2)CCOCC1 (racemic) 3.7

---

target: Platelet-activating factor acetylhydrolase (Homo sapiens)
# if measured IC50 < 10 µM: y  # else: n

Solved entries (count: 5):
[
  {
    "compound": "O=C1NC2(CCCCC2)C(=O)N1CCOc1ccc(F)cc1",
    "group": "n"
  },
  {
    "compound": "CC1(C2CC(=O)N(CCOc3ccc(F)cc3)C2)CCS(=O)(=O)CC1 (racemic)",
    "group": "y"
  },
  {
    "compound": "CC1(C)CN(CCOc2ccc(F)cc2)C(=O)N1",
    "group": "n"
  },
  {
    "compound": "CN1C(=O)N(CCOc2ccccc2)C(=O)C1(C)C",
    "group": "n"
  },
  {
    "compound": "CC1(C)CC(=O)N(CCOc2ccc(F)cc2)C1",
    "group": "n"
  }
]

API: the following record is the query input.
Take the compound CC(=O)N1CCC(C)(C2CC(=O)N(CCOc3ccc(F)c(C#N)c3)C2)CC1 (racemic) and say whether its IC50 is less than 10 µM. y

---

assay: Oral bioavailability in Beagle dog at 0.5 mg/kg by LC/MS-MS method; format: ADME, organism-based, Canis lupus familiaris; settings: in vivo
recorded.endpoint: bioavailability (%)
Give the quantity in %, number only.

Determine from records and report bioavailability for CN1CCC(C)(C2CC(=O)N(CCOc3ccc(F)c(C#N)c3)C2)CC1.Cl (racemic) 76

---

test: Solubility of the compound by quantitative NMR method; format: physicochemical
recorded.endpoint: solubility (mM)
Give the quantity in mM, number only.

Determine from records and report solubility for CC1([C@@H]2CC(=O)N(CCOc3ccc(F)c(C#N)c3)C2)CCS(=O)(=O)CC1 3.5

---

experiment: Volume of distribution at steady state in Han Wistar rat at 1 mg/kg, iv or 3 mg/kg, po administered as bolus dose by LC/MS-MS method; assay type: ADME, organism-based; conditions: in vivo, read-out: Vdss
recorded.endpoint: Vd (L/kg)
Give the quantity in L/kg, number only.

[
  {
    "molecule": "CC1(C2CC(=O)N(CCOc3ccc(F)c(F)c3)C2)CCS(=O)(=O)CC1 (racemic)",
    "observed": 0.63
  },
  {
    "molecule": "CC1([C@@H]2CC(=O)N(CCOc3ccc(F)c(C#N)c3)C2)CCS(=O)(=O)CC1",
    "observed": 1.2
  },
  {
    "molecule": "CC1(C2CC(=O)N(CCOc3ccc(F)c(C#N)c3)C2)CCNCC1.Cl (racemic; form 2)",
    "observed": 2
  }
]

Below: the item to evaluate.
Determine from records and report Vd for CN1CCC(C)(C2CC(=O)N(CCOc3ccc(F)c(C#N)c3)C2)CC1.Cl (racemic) 3.2

---

assay: Protein binding in rat plasma at 10 uM incubated for 4 hrs by LC/MS-MS based rapid equilibrium dialysis method; format: ADME, cell-free; settings: read-out: PPB (converted)
Measured fraction unbound at 4 h, 10 µM accompanies every entry in the list below.
Simply state the number, no unit and no words.

Below, each entry is followed by its recorded fraction unbound at 4 h, 10 µM result.
[
  {
    "compound": "CC1([C@@H]2CC(=O)N(CCOc3ccc(F)c(F)c3)C2)CCS(=O)(=O)CC1",
    "fraction unbound at 4 h, 10 µM": 0.7
  },
  {
    "compound": "CC1([C@@H]2CC(=O)N(CCOc3ccc(F)c(C#N)c3)C2)CCS(=O)(=O)CC1",
    "fraction unbound at 4 h, 10 µM": 0.8
  },
  {
    "compound": "CN1CCC(C)(C2CC(=O)N(CCOc3ccc(F)c(C#N)c3)C2)CC1 (racemic)",
    "fraction unbound at 4 h, 10 µM": 0.71
  }
]

Determine from records and report fraction unbound at 4 h, 10 µM for CC1(C2CC(=O)N(CCOc3ccc(F)c(C#N)c3)C2)CCNCC1.Cl (racemic; form 2) 0.81

---

test: Oral bioavailability in Han Wistar rat at 3 mg/kg administered as bolus dose by LC/MS-MS method; type: ADME, organism-based; conditions: in vivo
Measured bioavailability accompanies every entry in the list below.

Below, each entry is followed by its recorded bioavailability result.
[
  {
    "molecule": "CC1(C2CC(=O)N(CCOc3ccc(F)c(F)c3)C2)CCS(=O)(=O)CC1 (racemic)",
    "bioavailability": "47%"
  },
  {
    "molecule": "CN1CCC(C)(C2CC(=O)N(CCOc3ccc(F)c(C#N)c3)C2)CC1.Cl (racemic)",
    "bioavailability": "52%"
  }
]

Below: the item to evaluate.
Determine from records and report bioavailability for CC1(C2CC(=O)N(CCOc3ccc(F)c(C#N)c3)C2)CCNCC1.Cl (racemic; form 2) < 5%

---

biological target: UniProt P08684
Sequence (P08684 whole entry): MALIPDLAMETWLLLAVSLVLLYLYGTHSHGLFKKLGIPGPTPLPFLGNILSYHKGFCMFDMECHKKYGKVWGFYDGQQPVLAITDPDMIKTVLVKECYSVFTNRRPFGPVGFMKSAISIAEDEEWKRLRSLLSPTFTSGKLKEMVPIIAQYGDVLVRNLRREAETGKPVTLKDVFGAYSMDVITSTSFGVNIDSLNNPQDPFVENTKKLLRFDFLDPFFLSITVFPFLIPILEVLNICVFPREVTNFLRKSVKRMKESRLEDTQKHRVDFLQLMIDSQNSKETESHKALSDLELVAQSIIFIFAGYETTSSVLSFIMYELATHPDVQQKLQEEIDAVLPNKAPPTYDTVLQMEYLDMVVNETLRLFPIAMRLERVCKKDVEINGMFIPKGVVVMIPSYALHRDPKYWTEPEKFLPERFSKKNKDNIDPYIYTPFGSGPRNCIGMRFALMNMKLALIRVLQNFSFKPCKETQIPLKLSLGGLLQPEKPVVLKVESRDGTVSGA
recorded.endpoint: IC50

[
  {
    "compound": "CC1([C@@H]2CC(=O)N(CCOc3ccc(F)c(F)c3)C2)CCS(=O)(=O)CC1",
    "IC50": "> 50 µM"
  }
]

Below: the item to evaluate.
Determine from records and report IC50 for CC1(C2CC(=O)N(CCOc3ccc(F)c(C#N)c3)C2)CCNCC1.Cl (racemic; form 2) > 50 µM

---

assay: Clearance in Han Wistar rat at 1 mg/kg, iv or 3 mg/kg, po administered as bolus dose by LC/MS-MS method; type: ADME, organism-based; settings: in vivo
Measured clearance accompanies every entry in the list below.
Give the quantity in mL/min/kg, number only.

Determine from records and report clearance for CC1(C2CC(=O)N(CCOc3ccc(F)c(C#N)c3)C2)CCNCC1.Cl (racemic; form 2) 15

Determine from records and report clearance for CN1CCC(C)(C2CC(=O)N(CCOc3ccc(F)c(C#N)c3)C2)CC1.Cl (racemic) 24

Determine from records and report clearance for CC1(C2CC(=O)N(CCOc3ccc(F)c(F)c3)C2)CCS(=O)(=O)CC1 (racemic) 22

Determine from records and report clearance for CC1([C@@H]2CC(=O)N(CCOc3ccc(F)c(C#N)c3)C2)CCS(=O)(=O)CC1 67

---

Biological target: Platelet-activating factor acetylhydrolase (Homo sapiens, UniProt Q13093)
Sequence (Q13093 whole entry): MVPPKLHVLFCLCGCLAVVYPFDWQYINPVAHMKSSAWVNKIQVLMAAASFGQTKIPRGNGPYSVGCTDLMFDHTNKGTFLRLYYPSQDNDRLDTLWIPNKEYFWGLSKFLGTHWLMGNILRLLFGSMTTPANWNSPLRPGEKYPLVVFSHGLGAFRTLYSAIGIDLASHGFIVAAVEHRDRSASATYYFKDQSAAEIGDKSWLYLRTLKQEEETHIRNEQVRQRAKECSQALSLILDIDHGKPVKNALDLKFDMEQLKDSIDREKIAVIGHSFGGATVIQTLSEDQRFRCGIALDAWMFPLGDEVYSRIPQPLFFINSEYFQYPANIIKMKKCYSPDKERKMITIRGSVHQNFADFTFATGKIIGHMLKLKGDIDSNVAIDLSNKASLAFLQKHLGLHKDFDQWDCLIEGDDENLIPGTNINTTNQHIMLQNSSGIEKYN
Measured pIC50 accompanies every entry in the list below.
Remember, pIC50 is on a log scale: it is -log10 of the molar concentration.

Below, each entry is followed by its recorded pIC50 result.
[
  {
    "compound": "CC1(C)CCC(=O)N(CCOc2ccc(F)cc2)C1",
    "pIC50": 5.00
  },
  {
    "compound": "CN1CC(=O)N(CCOc2ccccc2)C1=O",
    "pIC50": 3.00
  },
  {
    "compound": "CC1(C2CC(=O)N(CCOc3ccc(F)c(F)c3)C2)CCS(=O)(=O)CC1 (racemic)",
    "pIC50": 6.80
  },
  {
    "compound": "CC1(C)CC(=O)N(CCOc2ccc(F)c(C#N)c2)C1",
    "pIC50": 5.52
  },
  {
    "compound": "CC1([C@@H]2CC(=O)N(CCOc3ccc(F)c(F)c3)C2)CCS(=O)(=O)CC1",
    "pIC50": 7.07
  }
]

Below: the item to evaluate.
Determine from records and report pIC50 for CC1(C2CC(=O)N(CCOc3ccc(F)c(C#N)c3)C2)CCOCC1 (racemic) 6.80
